FYI, the data here is from the kinase profiling compilation of Christmann-Franck et al. (2016).

target: TBK1 (human) (UniProt Q9UHD2); assay: radiometric filter-binding kinase assay, Kinase HotSpot; details: compound 0.5 µM; ATP 10 µM
Sequence (Q9UHD2 whole entry, looked up): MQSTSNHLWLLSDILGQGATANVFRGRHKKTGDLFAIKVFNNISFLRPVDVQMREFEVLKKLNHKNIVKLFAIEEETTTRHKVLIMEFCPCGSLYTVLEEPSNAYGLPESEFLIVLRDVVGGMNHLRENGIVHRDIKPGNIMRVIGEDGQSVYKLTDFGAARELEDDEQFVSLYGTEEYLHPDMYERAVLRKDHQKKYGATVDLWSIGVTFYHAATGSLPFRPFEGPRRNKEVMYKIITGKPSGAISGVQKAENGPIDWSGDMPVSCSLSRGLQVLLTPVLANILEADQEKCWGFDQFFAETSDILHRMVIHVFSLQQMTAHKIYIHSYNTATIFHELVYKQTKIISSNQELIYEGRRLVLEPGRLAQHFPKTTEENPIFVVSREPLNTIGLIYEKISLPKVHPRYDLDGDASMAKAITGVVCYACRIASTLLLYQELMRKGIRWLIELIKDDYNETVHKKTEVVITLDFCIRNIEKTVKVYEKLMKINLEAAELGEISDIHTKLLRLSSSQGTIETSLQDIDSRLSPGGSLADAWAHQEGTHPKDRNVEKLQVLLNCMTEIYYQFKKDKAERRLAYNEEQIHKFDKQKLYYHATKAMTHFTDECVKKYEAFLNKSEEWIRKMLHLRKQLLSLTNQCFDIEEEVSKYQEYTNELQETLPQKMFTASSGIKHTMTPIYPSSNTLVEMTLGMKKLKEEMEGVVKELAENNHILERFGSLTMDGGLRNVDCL
Readout name: residual activity (%)
// return numeric value only (unit: %, not printed)

Exercise: I'd like to know its residual activity. The molecule in question is CN([C@@H](Cc1ccc(OS(=O)(=O)c2cccc3cnccc23)cc1)C(=O)N1CCN(c2ccccc2)CC1)S(=O)(=O)c1cccc2cnccc12
Key: 101

Exercise: Cool, now Cn1nc2c3c(cccc31)C(=O)c1ccccc1-2
Key: 88.8

Exercise: Consider next the molecule Nc1nccc(-c2c(-c3ccc(F)cc3)ncn2C2CCNCC2)n1 in the same way.
Key: 102

Exercise: Now give it for CCN(CC)CCCCN1c2ccccc2Oc2ccc(Cl)cc21 too.
Key: 86.3

Exercise: Note, next up: CC(=O)O/N=C1\C(=C2\C(=O)Nc3cc(Br)ccc32)Nc2ccccc21
Key: 78.5

Exercise: Same read-out for COc1ccc(CNC(=O)Nc2ncc([N+](=O)[O-])s2)cc1 ?
Key: 104

Exercise: Moving on to O=C1Cc2c([nH]c3ccc(Br)cc23)-c2ccccc2N1
Key: 93

Exercise: Would you kindly repeat that for O=C(CCCc1ccc(-c2ccccc2F)cc1)Nc1ccc(O)cc1 ?
Key: 98.2

Exercise: Entry to check: CN(C)C[C@H]1CCn2c(c(C3=C(c4cn(C)c5ccccc45)C(=O)NC3=O)c3ccccc32)C1
Key: 91.4

###

target: PTK2 (human) (UniProt Q05397); test: radiometric filter-binding kinase assay, Kinase HotSpot; details: compound 0.5 µM; ATP 10 µM
Sequence (Q05397 whole entry, looked up): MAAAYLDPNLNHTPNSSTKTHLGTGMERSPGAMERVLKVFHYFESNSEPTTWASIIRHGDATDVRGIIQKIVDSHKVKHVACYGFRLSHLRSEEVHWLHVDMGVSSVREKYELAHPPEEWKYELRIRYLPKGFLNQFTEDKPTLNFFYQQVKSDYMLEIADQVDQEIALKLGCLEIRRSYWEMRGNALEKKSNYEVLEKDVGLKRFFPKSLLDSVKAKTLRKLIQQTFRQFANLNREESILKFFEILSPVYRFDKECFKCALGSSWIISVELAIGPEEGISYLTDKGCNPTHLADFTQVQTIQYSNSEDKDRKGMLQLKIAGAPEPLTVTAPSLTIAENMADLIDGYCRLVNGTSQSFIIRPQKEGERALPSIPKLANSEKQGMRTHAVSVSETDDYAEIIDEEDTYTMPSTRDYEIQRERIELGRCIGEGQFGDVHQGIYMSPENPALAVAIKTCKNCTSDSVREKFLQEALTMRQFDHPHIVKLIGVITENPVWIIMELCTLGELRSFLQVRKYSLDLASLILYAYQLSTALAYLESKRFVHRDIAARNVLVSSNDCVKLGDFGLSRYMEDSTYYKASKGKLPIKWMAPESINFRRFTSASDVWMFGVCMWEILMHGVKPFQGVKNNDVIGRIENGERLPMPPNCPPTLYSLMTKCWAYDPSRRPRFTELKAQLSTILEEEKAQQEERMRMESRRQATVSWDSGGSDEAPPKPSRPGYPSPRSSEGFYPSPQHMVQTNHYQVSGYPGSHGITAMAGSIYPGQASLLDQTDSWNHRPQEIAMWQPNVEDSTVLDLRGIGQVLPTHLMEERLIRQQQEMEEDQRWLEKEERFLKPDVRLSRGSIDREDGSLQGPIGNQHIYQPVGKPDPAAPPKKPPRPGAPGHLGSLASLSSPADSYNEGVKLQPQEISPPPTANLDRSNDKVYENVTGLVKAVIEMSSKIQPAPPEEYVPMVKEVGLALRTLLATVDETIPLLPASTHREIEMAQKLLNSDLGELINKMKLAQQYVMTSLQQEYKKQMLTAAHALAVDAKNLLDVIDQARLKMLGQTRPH
Provide the reported residual activity of each item.
Entry rule: numbers only, all in %.

Exercise: Look up residual activity for this compound: CC(C)c1nn(-c2c(Cl)cccc2Cl)c2nc(Cc3ccc(OCCO)cc3)nc(O)c12
Key: 103

Exercise: Quick one: COc1ccc(CNC(=O)Nc2ncc([N+](=O)[O-])s2)cc1
Key: 101

Exercise: Repeat for the following compound: Nc1nnc2[nH]c3ccccc3nc1-2
Key: 94.6

Exercise: Same question, CN([C@@H](Cc1ccc(OS(=O)(=O)c2cccc3cnccc23)cc1)C(=O)N1CCN(c2ccccc2)CC1)S(=O)(=O)c1cccc2cnccc12 this time
Key: 104

Exercise: Subsequent entry: O=C1Nc2ccccc2/C1=C1/Nc2ccccc2/C1=N\OCCC(O)CO (stereo not given)
Key: 35

###

Task for the reader: assign each of the following molecules its reported residual activity.
target: PRKX (human) (UniProt P51817); experiment: radiometric filter-binding kinase assay, Kinase HotSpot; conditions: compound 0.5 µM; ATP 10 µM
Sequence (P51817 whole entry, looked up): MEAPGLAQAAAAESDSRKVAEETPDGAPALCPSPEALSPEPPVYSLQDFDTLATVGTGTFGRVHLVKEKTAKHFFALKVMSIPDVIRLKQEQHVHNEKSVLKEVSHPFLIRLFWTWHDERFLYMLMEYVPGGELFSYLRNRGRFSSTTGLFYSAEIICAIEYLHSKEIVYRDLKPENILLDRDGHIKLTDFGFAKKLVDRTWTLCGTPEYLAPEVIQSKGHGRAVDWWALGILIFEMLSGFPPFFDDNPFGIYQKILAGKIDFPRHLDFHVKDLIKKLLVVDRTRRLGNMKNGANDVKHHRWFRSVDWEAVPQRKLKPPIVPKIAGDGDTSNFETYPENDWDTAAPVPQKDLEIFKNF
Write it as a number; the unit % goes unstated.

Exercise: Entry Oc1ccc(Nc2nc(-c3ccc(Cl)cc3)cs2)cc1 : reported residual activity = ?
Key: 99.6

Exercise: Could you do the same for O=C(CCCc1ccc(-c2ccccc2F)cc1)Nc1ccc(O)cc1 , please?
Key: 106

Exercise: Input CC(=O)O/N=C1\C(=C2\C(=O)Nc3cc(Br)ccc32)Nc2ccccc21
Key: 99.9

Exercise: Moving on to O=C1Cc2c([nH]c3ccc(Br)cc23)-c2ccccc2N1
Key: 100

Exercise: Please do the same for CN([C@@H](Cc1ccc(OS(=O)(=O)c2cccc3cnccc23)cc1)C(=O)N1CCN(c2ccccc2)CC1)S(=O)(=O)c1cccc2cnccc12 as well.
Key: 109

Exercise: What would you report for O=C1NC(=O)/C(=C\c2ccc3nccnc3c2)S1 ?
Key: 89.2

Exercise: Likewise for COc1cc2ncnc(N3CCN(C(=O)Nc4ccc(Oc5ccccc5)cc4)CC3)c2cc1OC ?
Key: 99.3

Exercise: And O=C(O)/C=C/c1cc(Br)c(Br)c(Br)c1Br ?
Key: 96

Exercise: Try this molecule next: O=C1Nc2ccccc2/C1=C1/Nc2ccccc2/C1=N\OCCC(O)CO (configuration not stated)
Key: 84.2

Exercise: And O=C1NC(=O)C(c2cn(CCCO)c3ncccc23)=C1c1cnccn1 ?
Key: 106

Exercise: Another molecule to look at: COc1cc2ncc(-c3ccccc3)nc2cc1OC
Key: 97.4

Exercise: CCn1cnc2c(Nc3cccc(Cl)c3)nc(N[C@@H]3CCCC[C@@H]3N)nc21 ?
Key: 102

Exercise: Then Nc1nccc(-c2c(-c3ccc(F)cc3)ncn2C2CCNCC2)n1 ?
Key: 96.8

Exercise: Input CC(C)[C@H](CO)Nc1nc(Nc2cc(N)cc(Cl)c2)c2ncn(C(C)C)c2n1
Key: 101

Exercise: Thanks! And CCN(CC)CCCCN1c2ccccc2Oc2ccc(Cl)cc21 ?
Key: 103

Exercise: // repeat for CC(C)c1nn(-c2c(Cl)cccc2Cl)c2nc(Cc3ccc(OCCO)cc3)nc(O)c12 and report
Key: 96.3

Exercise: Same lookup for O=C(Nc1cccc(Nc2cc(Nc3cccc(C(F)(F)F)c3)ncn2)c1)C1CC1 , please.
Key: 107

Exercise: And what about the molecule COc1ccc(CNC(=O)Nc2ncc([N+](=O)[O-])s2)cc1 ?
Key: 72.1

Exercise: Thanks! And Cn1nc2c3c(cccc31)C(=O)c1ccccc1-2 ?
Key: 101

Exercise: Do the same for Cn1sc(=O)n(Cc2ccccc2)c1=O please
Key: 102

Exercise: And Nc1nnc2[nH]c3ccccc3nc1-2 ?
Key: 102

Exercise: Same read-out for O=C1NC(=O)C(c2c[nH]c3ccccc23)=C1c1c[nH]c2ccccc12 ?
Key: 99.5

Exercise: Cool, now Cn1cnc2cc3c(Nc4cccc(Br)c4)ncnc3cc21
Key: 101

Exercise: Also CN(C)C[C@H]1CCn2c(c(C3=C(c4cn(C)c5ccccc45)C(=O)NC3=O)c3ccccc32)C1 ?
Key: 97.8

Exercise: Continue with Cc1nc2cc3nc(-c4cccs4)cnc3cc2n1C
Key: 106

Exercise: # iterate: O=C1Nc2ccccc2/C1=C1\Nc2ccccc2\C1=N/O
Key: 88.8

Exercise: Same question, COc1ccc(OC)c2c(=S)c3ccccc3[nH]c12 this time
Key: 93.5
